Origin of measurements: paper PMC10663500

molecular target: T1, human programmed cell death protein 1 (hPD-1) C93S (aa 24-167) (Homo sapiens, UniProt Q15116, C93S); assay: SPR; Carterra LSA; Fab from the ammonium sulfate precipitate of the culture supernatant immobilised on a NiHC200M chip; hPD-1 (1-1024 nM) or mPD-1-Fc (4-1024 nM) as analyte, fourfold dilution series, no regeneration; HBS-EP pH 7.4, 25 °C; medians over the spots of a construct, KD = koff/kon; details: one partner purified
T1 construct: made as a fusion with a TEV site and human Fc; the Fc was cut off with TEV protease; source: Expi293F, purified (Protein A, TEV cleavage of Fc, SEC; monomer fractions); not shown: Fc (human), C-terminal, cleaved
T1 sequence (Q15116 24-167 C93S): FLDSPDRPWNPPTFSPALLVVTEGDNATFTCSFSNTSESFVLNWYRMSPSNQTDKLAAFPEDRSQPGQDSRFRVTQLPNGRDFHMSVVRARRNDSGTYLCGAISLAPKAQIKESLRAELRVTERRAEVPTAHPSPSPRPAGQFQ
endpointName: koff (s⁻¹)
Answers are plain numbers, in s⁻¹.

Fill blank: measured koff of the binder toripalimab Fab L.I29Y (Fab, V domains shown, as the heavy chain of Sm3; light chain of Sm3 with this change; numbers count from the chain's first residue; source: Brevibacillus, culture supernatant (ammonium sulfate precipitate); not shown: 6xHis, C-terminal, kept; 6xHN, C-terminal, kept) VH: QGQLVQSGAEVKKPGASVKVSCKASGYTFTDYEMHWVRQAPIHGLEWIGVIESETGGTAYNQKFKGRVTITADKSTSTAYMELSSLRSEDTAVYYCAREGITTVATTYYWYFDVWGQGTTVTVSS VL: DVVMTQSPLSLPVTLGQPASISCRSSQSYVHSNGNTYLEWYLQKPGQSPQLLIYKVSNRFSGVPDRFSGSGSGTDFTLKISRVEAEDVGVYYCFQGSHVPLTFGQGTKLEIK is ____.
0.000378
